Recorded values, source ChEMBL document CHEMBL1697781.

Known SGPT Increase - Index Value of a selection of compounds
Tested on: Hepatotoxicity
Assay: FDA HLAED, serum glutamic pyruvic transaminase (SGPT) increase
Condition Set: human

Compound | Target | SGPT Increase - Index Value
O=C1NC(c2ccccc2)(c2ccccc2)C(=O)N1COP(=O)(O)O | Hepatotoxicity | 0
CC(C)(C)c1ccc(C(O)CCCN2CCC(C(O)(c3ccccc3)c3ccccc3)CC2)cc1 (stereo not drawn) | Hepatotoxicity | 0.7
CC[C@H]1OC(=O)[C@H](C)[C@@H](O[C@H]2C[C@@](C)(OC)[C@@H](O)[C@H](C)O2)[C@H](C)[C@@H](O[C@@H]2O[C@H](C)C[C@H](N(C)C)[C@H]2O)[C@](C)(O)C[C@@H](C)CN(C)[C@H](C)[C@@H](O)[C@]1(C)O | Hepatotoxicity | 2.3
CN(N=O)C(=O)N[C@@H](C=O)[C@@H](O)[C@H](O)[C@H](O)CO | Hepatotoxicity | 0
CCOC(=O)[C@H](CCc1ccccc1)N[C@H]1CCc2ccccc2N(CC(=O)O)C1=O | Hepatotoxicity | 0
CC(C)NCC(O)COc1ccc(CC(N)=O)cc1 (stereo not drawn) | Hepatotoxicity | 0.3
C[C@@H]1C[C@H]2[C@@H]3C[C@H](F)C4=CC(=O)C=C[C@]4(C)[C@@]3(F)[C@@H](O)C[C@]2(C)[C@@]1(O)C(=O)SCF | Hepatotoxicity | 0.8
CC(=O)OCC(CCn1cnc2cnc(N)nc21)COC(C)=O | Hepatotoxicity | 0

----------
System: Hepatotoxicity
Assay: FDA HLAED, serum glutamic oxaloacetic transaminase (SGOT) increase
Condition Set: human
Think of 0.5 as a floor: if SGOT Increase - Index Value stands on it or above, it is TRUE; beneath it, FALSE.

Molecule | Target | Qualitative Label
Clc1ccc2c(c1)C(N1CCNCC1)=Nc1ccccc1O2 [AMOXAPINE] | Hepatotoxicity | TRUE
O=C1CC2(CCCC2)CC(=O)N1CCCCN1CCN(c2ncccn2)CC1 [BUSPIRONE] | Hepatotoxicity | TRUE
CCC(=O)Oc1ccc2c(c1)CC[C@@H]1[C@@H]2CC[C@]2(C)[C@@H](OC(=O)CC)CC[C@@H]12 [ESTRADIOL DIPROPIONATE] | Hepatotoxicity | TRUE
COc1cc(C(=O)NS(=O)(=O)c2ccccc2C)ccc1Cc1cn(C)c2ccc(NC(=O)OC3CCCC3)cc12 [ZAFIRLUKAST] | Hepatotoxicity | TRUE
Cc1cc(CC(=O)O)n(C)c1C(=O)c1ccc(Cl)cc1 [ZOMEPIRAC] | Hepatotoxicity | TRUE
O=C(O)c1cc(-c2ccc(F)cc2F)ccc1O [DIFLUNISAL] | Hepatotoxicity | FALSE
CC(C)C[C@H]1C(=O)N2CCC[C@H]2[C@]2(O)O[C@](NC(=O)[C@@H]3C=C4c5cccc6[nH]c(Br)c(c56)C[C@H]4N(C)C3)(C(C)C)C(=O)N12 [BROMOCRIPTINE] | Hepatotoxicity | FALSE
COC(=O)C1=C(C)NC(C)=C(C(=O)OCCN(C)Cc2ccccc2)C1c1cccc([N+](=O)[O-])c1 (stereo not drawn) [NICARDIPINE] | Hepatotoxicity | TRUE
CN[C@H]1CC[C@@H](c2ccc(Cl)c(Cl)c2)c2ccccc21 [SERTRALINE] | Hepatotoxicity | TRUE
Nc1cc(N2CCCCC2)nc(N)[n+]1[O-] [MINOXIDIL] | Hepatotoxicity | TRUE
Clc1ccc(C(Cn2ccnc2)OCc2ccsc2Cl)c(Cl)c1 (stereo not drawn) [TIOCONAZOLE] | Hepatotoxicity | FALSE
CCCCc1oc2ccccc2c1C(=O)c1cc(I)c(OCCN(CC)CC)c(I)c1 [AMIODARONE] | Hepatotoxicity | FALSE
COc1ccc(OC)c(C(O)CNC(=O)CN)c1 (stereo not drawn) [MIDODRINE] | Hepatotoxicity | FALSE
Cc1cccc(C)c1NC(=O)C(C)N (stereo not drawn) [TOCAINIDE] | Hepatotoxicity | TRUE
CC(Cc1ccc(O)c(O)c1)C(C)Cc1ccc(O)c(O)c1 (stereo not drawn) [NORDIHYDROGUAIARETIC ACID] | Hepatotoxicity | FALSE
Nc1nc(F)nc2c1ncn2[C@@H]1O[C@H](CO)[C@@H](O)[C@@H]1O [FLUDARABINE] | Hepatotoxicity | TRUE
CO[C@@]1(NC(=O)CSCC#N)C(=O)N2C(C(=O)O)=C(CSc3nnnn3C)CS[C@@H]21 [CEFMETAZOLE] | Hepatotoxicity | FALSE

----------
Test system: Hepatotoxicity
Assay: FDA HLAED, gamma-glutamyl transferase (GGT) increase
Condition Set: human

Compound | GGT Increase - Activity Score
Clc1ccc2nsnc2c1NC1=NCCN1 [TIZANIDINE] | Inactive
C=C1c2c(Cl)ccc(O)c2C(=O)C2=C(O)[C@]3(O)C(=O)C(C(N)=O)=C(O)[C@@H](N(C)C)[C@@H]3[C@@H](O)[C@H]12 [MECLOCYCLINE] | Inactive
CCOC(=O)C1=C(COCCN)NC(C)=C(C(=O)OC)C1c1ccccc1Cl (centres undefined) [AMLODIPINE] | Inactive
CCCCC(=O)O[C@H]1CC[C@H]2[C@@H]3CCc4cc(O)ccc4[C@H]3CC[C@]12C [ESTRADIOL VALERATE] | Inactive
COc1ccc2[nH]c([S+]([O-])Cc3ncc(C)c(OC)c3C)nc2c1 (centres undefined) [OMEPRAZOLE] | Inactive
CC[C@@]1(O)C(=O)OCc2c1cc1n(c2=O)Cc2cc3c(CN(C)C)c(O)ccc3nc2-1 [TOPOTECAN] | Inactive
N=C(N)c1ccc(OCCCCCOc2ccc(C(=N)N)cc2)cc1 [PENTAMIDINE] | Inactive
Cc1cccc(Nc2ccncc2S(=O)(=O)NC(=O)NC(C)C)c1 [TORSEMIDE] | Inactive
CC(C)N1CCN(c2ccc(OCC3COC(Cn4cncn4)(c4ccc(Cl)cc4Cl)O3)cc2)CC1 (centres undefined) [TERCONAZOLE] | Inactive

----------
Test system: Hepatotoxicity
Assay: FDA HLAED, gamma-glutamyl transferase (GGT) increase
Condition Set: human

Molecule | GGT Increase - Number of Reports
N#Cc1cc(NC(=O)C(=O)O)c(Cl)c(NC(=O)C(=O)O)c1 [LODOXAMIDE] | < 4
Nc1c2c(nc3ccccc13)CCCC2 | >= 4
COc1cccc(C2(O)CCCCC2CN(C)C)c1 (stereo not given) | < 4
CC(Cc1ccc(O)c(O)c1)C(C)Cc1ccc(O)c(O)c1 (stereo not given) [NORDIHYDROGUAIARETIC ACID] | < 4
CC[C@H](C)C(=O)O[C@H]1C[C@H](O)C=C2C=C[C@H](C)[C@H](CC[C@@H](O)C[C@@H](O)CC(=O)O)[C@H]21 | >= 4
OC(c1cc(C(F)(F)F)nc2c(C(F)(F)F)cccc12)C1CCCCN1 (stereo not given) | >= 4
C=C1/C(=C\C=C2/CCC[C@]3(C)[C@@H]([C@H](C)CCCC(C)(C)O)CC[C@@H]23)C[C@@H](O)C[C@@H]1O | < 4
Clc1ccc2c(c1)C(c1ccccc1)=NCc1nncn1-2 | < 4
COC(=O)C1=C(C)NC(C)=C(C(=O)OC(C)C)C1c1cccc2nonc12 (stereo not given) | < 4
NCCC(O)(P(=O)(O)O)P(=O)(O)O | < 4
COc1cc(C(=O)NS(=O)(=O)c2ccccc2C)ccc1Cc1cn(C)c2ccc(NC(=O)OC3CCCC3)cc12 | < 4
CC(C)(C)NCC(O)COc1cccc2c1CC(O)C(O)C2 (stereo not given) | < 4
C=C1CC[C@@]2(O)[C@H]3Cc4ccc(O)c5c4[C@@]2(CCN3CC2CC2)[C@H]1O5 | < 4
C[C@@H]1CN(c2c(F)c(N)c3c(=O)c(C(=O)O)cn(C4CC4)c3c2F)C[C@H](C)N1 | < 4
CC(C)n1c(/C=C/C(O)CC(O)CC(=O)O)c(-c2ccc(F)cc2)c2ccccc21 (stereo not given) | >= 4
NCCCC(O)(P(=O)(O)O)P(=O)(O)O | >= 4
CN1CCN2c3ncccc3Cc3ccccc3C2C1 (stereo not given) | < 4
C[C@]12CC[C@@H]3c4ccc(O)cc4CC[C@H]3[C@@H]1CC[C@@H]2O | < 4
COc1cccc2c1C(=O)c1c(O)c3c(c(O)c1C2=O)C[C@@](O)(C(C)=O)C[C@@H]3O[C@H]1C[C@H](N)[C@H](O)[C@H](C)O1 | < 4
C[C@@H]1C[C@H]2[C@@H]3C[C@H](F)C4=CC(=O)C=C[C@]4(C)[C@@]3(F)[C@@H](O)C[C@]2(C)[C@@]1(O)C(=O)SCF | < 4
COC(=O)C1=C(C)NC(C)=C(C(=O)OCC(C)C)C1c1ccccc1[N+](=O)[O-] (stereo not given) | < 4
C[C@](N)(Cc1ccc(O)cc1)C(=O)O | < 4
Cn1c(=O)c2[nH]cnc2n(C)c1=O.O | < 4
CCCC(=O)Nc1ccc(OCC(O)CNC(C)C)c(C(C)=O)c1 (stereo not given) | < 4
CCN(CC)CCNC(=O)c1ccc(N)cc1 [PROCAINAMIDE] | < 4
CC1=C(CC(=O)O)c2cc(F)ccc2/C1=C\c1ccc([S+](C)[O-])cc1 (stereo not given) | < 4
CCCCC[C@H](O)/C=C/[C@H]1[C@H](O)CC(=O)[C@@H]1CCCCCCC(=O)O | < 4
CC(C)(C)NCC(O)COc1cccc2c1CCC(=O)N2 (stereo not given) | < 4
CC(C)c1nc(CN(C)C(=O)N[C@H](C(=O)N[C@@H](Cc2ccccc2)C[C@H](O)[C@H](Cc2ccccc2)NC(=O)OCc2cncs2)C(C)C)cs1 | >= 4
COC(=O)C1=C(C)NC(C)=C(C(=O)OCCN(C)Cc2ccccc2)C1c1cccc([N+](=O)[O-])c1 (stereo not given) | < 4
Cn1cc([S+](C)[O-])c(=O)c2ccc(F)cc21 (stereo not given) | < 4
CO[C@@]1(NC(=O)CSCC#N)C(=O)N2C(C(=O)O)=C(CSc3nnnn3C)CS[C@@H]21 | < 4
Cc1cc(C2CCCCC2)n(O)c(=O)c1 | < 4
COC1=CC(=O)C[C@@H](C)[C@]12Oc1c(Cl)c(OC)cc(OC)c1C2=O | < 4
CN(C/C=C/C#CC(C)(C)C)Cc1cccc2ccccc12 | >= 4
